# test-target: T1, human VEGF165 (human, UniProt P15692 207-395)
# T1 construct: Recombinant (R&D Systems 293-VE; sf21- or HEK 293-expressed depending on the assay); Biotinylated in the DELFIA assay; also called hVEGF165; rHu-VEGF165
# T1 sequence (P15692 other isoform, or with tags, fused parts or gaps limits assumed): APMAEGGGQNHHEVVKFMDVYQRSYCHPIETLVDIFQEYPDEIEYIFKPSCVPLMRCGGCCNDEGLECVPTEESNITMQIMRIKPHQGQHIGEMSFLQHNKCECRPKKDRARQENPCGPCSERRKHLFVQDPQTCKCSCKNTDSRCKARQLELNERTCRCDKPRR
# assay-details: Biacore 2000, hVEGF165 amine-coupled on C1 chip, antibody injected, 1:1 fit
Reported koff by item:

binder	unit-text	koff
XPA.10.064.06 IgG2 (antibody, V domains shown, IgG2) VH: EVQLVQSGAEVRKPGASVKVSCKASGYSFTGHYIHWVRQAPGQGLEWMGWINPYSGGTNFPREFQGRVTMTRDTSVNTVYMELTRLTSDDTSVYYCARDEMTRGGLDYWGQGTLVTVSS VL: SYVLTQPPSASGTPGQRVTISCSGSSSNIGINYVYWYQQLPGTAPKLLIYRNDQRPSGVPDRFSGSKSGTSASLAISGLRSEDEADYYCATWDDSLSGVVFGGGTKVTVL	s⁻¹	2.07e-05
XPA.10.064.03 IgG2 (antibody, V domains shown, IgG2) VH: EVQLVQSGAEVRKPGASVKVSCKASGYSFTGHYIHWVRQAPGQGLEWMGWINPYSGGTNFPREFQGRVTMTRDTSVNTVYMELTRLTSDDTSVYYCARDQMVHGGLDYWGQGTLVTVSS VL: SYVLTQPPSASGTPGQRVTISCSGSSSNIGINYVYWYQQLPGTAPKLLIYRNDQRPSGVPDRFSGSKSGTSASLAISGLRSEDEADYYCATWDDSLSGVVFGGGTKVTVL	s⁻¹	1.8e-05
XPA.10.064 IgG2 (antibody, V domains shown, Converted to IgG with gamma-2 heavy chain constant region; Expressed in 293E cells; also called parental XPA.10.064; VPA.10.064) VH: EVQLVQSGAEVRKPGASVKVSCKASGYSFTGHYIHWVRQAPGQGLEWMGWINPYSGGTNFPREFQGRVTMTRDTSVNTVYMELTRLTSDDTSVYYCARDHRIVGGLDYWGQGTLVTVSS VL: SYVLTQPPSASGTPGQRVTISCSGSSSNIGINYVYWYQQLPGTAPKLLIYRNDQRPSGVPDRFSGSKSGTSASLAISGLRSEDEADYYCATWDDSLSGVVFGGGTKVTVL	s⁻¹	0.000335
XPA.10.064.07 IgG2 (antibody, V domains shown, IgG2) VH: EVQLVQSGAEVRKPGASVKVSCKASGYSFTGHYIHWVRQAPGQGLEWMGWINPYSGGTNFPREFQGRVTMTRDTSVNTVYMELTRLTSDDTSVYYCARDEMHVGGLDYWGQGTLVTVSS VL: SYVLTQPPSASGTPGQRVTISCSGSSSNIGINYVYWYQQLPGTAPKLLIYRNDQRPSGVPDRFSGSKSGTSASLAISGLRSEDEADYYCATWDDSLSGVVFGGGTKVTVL	s⁻¹	6.65e-06

These data points were gathered from patent US20110097340A1.
